Every entry's value here was drawn from the Immune Epitope Database (IEDB).

For each of the sequences below, state its Kd.
Target: HLA-B*40:01
Test: IEDB peptide-MHC binding, purified MHC/competitive/radioactivity; filed as Kd, often an IC50 or EC50 that approximates it; bounds were set here for any values at or beyond the usual limits of such assays
Settings: source organism: Dengue virus 2 Jamaica/1409/1983
Give bare numbers, in nM.

- KEFAAGRKSL: 9.63

# batch size: 3; output Kd per entry
1. TEWCCRSCTL
2. GEEVQVLAL
3. TEIQMSSGNL

Reply:
1: 9.95; 2: 3.09; 3: 7.03

====

Biological target: HLA-A*26:02
Assay: IEDB peptide-MHC binding, purified MHC/competitive/fluorescence; filed as Kd, often an IC50 or EC50 that approximates it; bounds were set here for any values at or beyond the usual limits of such assays
Settings: source organism: Orthomarburgvirus marburgense
property name: Kd (nM)
One number for each entry, in nM.

Task item: Tell us which Kd value is on record for FLMRNAIQY
Reply: 1920

====

Biological target: HLA-B*15:42
Assay: IEDB peptide-MHC binding, purified MHC/competitive/fluorescence; filed as Kd, often an IC50 or EC50 that approximates it; bounds were set here for any values at or beyond the usual limits of such assays
Conditions: source organism: Yellow fever virus
pKd: −log10 of the molar value.
property name: pKd

Task item: Report pKd, nothing else, for this sequence: AEMGANLCV
Reply: ≤ 5.30

====

Target: HLA-A*03:01
Assay: IEDB peptide-MHC binding, purified MHC/competitive/fluorescence; bounds were set here for any values at or beyond the usual limits of such assays
Conditions: source organism: Zaire ebolavirus
property name: IC50

The following sequences have reported results that may help.
- ATTTSPQNH: 37.7 µM
- QLQQYAESR: ≥ 240 µM
- ILMNFHQKK: 0.808 µM

Please examine the following record next.
Task item: Please report IC50 for the following sequence: KLSSTNQLR
Reply: 6.87 µM

====

Molecular target: HLA-B*15:42
Experiment: IEDB peptide-MHC binding, purified MHC/competitive/fluorescence; filed as Kd, often an IC50 or EC50 that approximates it; bounds were set here for any values at or beyond the usual limits of such assays
Settings: source organism: Coxiella burnetii RSA 493
property name: Kd

Task item: Give the measured Kd for YRATYSMAL
Reply: ≥ 5 µM

====

Target: HLA-C*06:02
Assay: IEDB peptide-MHC binding, purified MHC/competitive/fluorescence; filed as Kd, often an IC50 or EC50 that approximates it; bounds were set here for any values at or beyond the usual limits of such assays
Settings: source organism: Entamoeba histolytica
property name: Kd (nM)
Answers are plain numbers, in nM.

Task item: Specify measured Kd for SYMSTFPLF .
Reply: 613

====

Molecular target: HLA-A*02:16
Test: IEDB peptide-MHC binding, purified MHC/direct/fluorescence; filed as Kd, often an IC50 or EC50 that approximates it; bounds were set here for any values at or beyond the usual limits of such assays
Conditions: source organism: Ravn virus - Ravn, Kenya, 1987
pKd: −log10 of the molar value.
property name: pKd

Task item: Report pKd, nothing else, for this sequence: FPSNMMVVT
Reply: ≤ 4.70

====

Biological target: HLA-A*24:02
Experiment: IEDB peptide-MHC binding, purified MHC/competitive/radioactivity; filed as Kd, often an IC50 or EC50 that approximates it; bounds were set here for any values at or beyond the usual limits of such assays
Settings: source organism: Lassa virus Josiah
Hi there, I'd appreciate the recorded Kd for every entry that follows.

• PEDPVEIALY = ≥ 70.3 µM

Attention now turns to another entry.
Task item: Provide Kd value for the following sequence: SCDFNGGKI
Reply: ≥ 77.5 µM

====

Target: HLA-A*02:16
Test: IEDB peptide-MHC binding, purified MHC/direct/fluorescence; filed as Kd, often an IC50 or EC50 that approximates it; bounds were set here for any values at or beyond the usual limits of such assays
Conditions: source organism: Vibrio vulnificus CMCP6
pKd: −log10 of the molar value.
property name: pKd

Task item: Provide only the value of recorded pKd for SVMSTFFWE
Reply: ≤ 4.70

====

Molecular target: HLA-B*40:01
Assay: IEDB peptide-MHC binding, purified MHC/competitive/fluorescence; filed as Kd, often an IC50 or EC50 that approximates it; bounds were set here for any values at or beyond the usual limits of such assays
Settings: source organism: Escherichia coli B171
property name: Kd (nM)
One number for each entry, in nM.

Task item: Note down Kd recorded for HELSLFWPL
Reply: 2.5

====

Biological target: HLA-A*03:01
Assay: IEDB peptide-MHC binding, purified MHC/competitive/radioactivity; filed as Kd, often an IC50 or EC50 that approximates it; bounds were set here for any values at or beyond the usual limits of such assays
Settings: source organism: SARS coronavirus Tor2
pKd: −log10 of the molar value.
Param threshold (7) applies to pKd; output Y when value >= threshold, N when value < threshold.

• TLAILTALR = N
• RFNVAITRAK = N
• TQVYIAVNDK = N
• VQIGEYTFEK = N
• LTRNPAWRK = N
• KSAGFPFNK = Y
• AIMQVFFGY = Y
• TLEEAKTALK = N
• YLCGFIKQK = N
• HQNSKKTTK = N

Task item: Textbook exercise: given the entry GTSWFITQR , state whether its pKd is greater than or equal to 7.
Reply: N

Task item: Say whether VQSKMSDVK shows pKd of 7 or more.
Reply: N

Task item: Threshold query (pKd >= 7) on VTYTEIEPK
Reply: Y

Task item: Test whether the sequence RLLACLCKHK records pKd of 7 or higher.
Reply: Y

Task item: Is the recorded value of pKd equal to or greater than 7 for this sequence? LLSGHNLAK
Reply: Y

Task item: Dear colleague, could you confirm whether IINNAVYTK has pKd at or above 7?
Reply: Y

====

Biological target: HLA-A*24:02
Experiment: IEDB peptide-MHC binding, purified MHC/competitive/fluorescence; filed as Kd, often an IC50 or EC50 that approximates it; bounds were set here for any values at or beyond the usual limits of such assays
Conditions: source organism: Vibrio splendidus 12B01
property name: Kd

Task item: Provide Kd value for the following sequence: IYLNEVNTF
Reply: ≤ 0.1 nM

====

Biological target: HLA-A*02:01
Assay: IEDB peptide-MHC binding, purified MHC/direct/fluorescence; filed as Kd, often an IC50 or EC50 that approximates it; bounds were set here for any values at or beyond the usual limits of such assays
Settings: source organism: Escherichia coli
property name: pKd
One number for each entry, as −log10 of the molar value.

Task item: Identify measured pKd associated with RMYGISPWT
Reply: 6.29

====

Target: HLA-A*69:01
Assay: IEDB peptide-MHC binding, purified MHC/direct/fluorescence; filed as Kd, often an IC50 or EC50 that approximates it; bounds were set here for any values at or beyond the usual limits of such assays
Settings: source organism: Vibrio vulnificus YJ016
pKd: −log10 of the molar value.
property name: pKd

Task item: Provide pKd value for the following sequence: LLRRRPYPL
Reply: ≤ 4.70

====

Target: HLA-A*68:01
Assay: IEDB peptide-MHC binding, purified MHC/competitive/radioactivity; filed as Kd, often an IC50 or EC50 that approximates it; bounds were set here for any values at or beyond the usual limits of such assays
Conditions: source organism: Dengue virus 3 Sri Lanka/1266/2000
property name: Kd (µM)
Numbers only, in µM.

Task item: Kindly indicate its recorded Kd. Item: ETTHHAVSR
Reply: 0.019

====

For each entry below, report its pKd value.
Target: HLA-B*45:01
Assay: IEDB peptide-MHC binding, purified MHC/competitive/radioactivity; filed as Kd, often an IC50 or EC50 that approximates it; bounds were set here for any values at or beyond the usual limits of such assays
Settings: source organism: SARS coronavirus Tor2
Answers are plain numbers, as −log10 of the molar value.

* SEAREHLKNG | 5.08

Now look at this entry.
Task item: Supply recorded pKd for KEQYCALSPG here.
Reply: 6.59

====

Task for the reader: assign each of the following sequences its reported Kd.
Biological target: HLA-A*03:01
Assay: IEDB peptide-MHC binding, purified MHC/competitive/radioactivity; filed as Kd, often an IC50 or EC50 that approximates it; bounds were set here for any values at or beyond the usual limits of such assays
Conditions: source organism: Vaccinia virus WR
Numbers only, in nM.

- LLFASMGFK: 0.874
- LIWAYLSKK: 21.4

Each sequence below has a reported value. Please supply its Kd.
1. ATLMKTSCSK
2. SACANGWIQY
3. RIENEMKINR
4. NARMATMLEY
5. TFQLLNMIK

Reply:
1: 33.6; 2: 1200; 3: 5560; 4: 169; 5: 20.8

====

Target: HLA-B*83:01
Assay: IEDB peptide-MHC binding, purified MHC/competitive/fluorescence; filed as Kd, often an IC50 or EC50 that approximates it; bounds were set here for any values at or beyond the usual limits of such assays
Settings: source organism: Escherichia coli B171
property name: Kd

Task item: For the sequence HELSLFWPL , give its measured Kd value.
Reply: ≥ 5 µM
